Source listed as PubChem BioAssay (NCI).

# System: OVCAR-3 ovarian
Outcomes: active, inactive

itemSmiles: Cc1ccc(C(=O)Nc2ccc(CNCCN3CCOCC3)c(C(F)(F)F)c2)cc1C#Cc1cnc2cccnn12
assignedClass: inactive
--
itemSmiles: C#CCN(C)CCCOc1ccc(NC(=O)CCCCCCC(=O)NO)cc1Cl
assignedClass: inactive
--
itemSmiles: Cc1ccc2c(n1)C(=O)C(Cl)=C(Nc1cccc(C)c1C)C2=O
assignedClass: active
--
itemSmiles: Fc1ccc(-c2nc(C(Cl)Cl)nc3cc(-c4ccccc4)nn23)cc1
assignedClass: inactive

* * *

# Test system: MDA-MB-231 breast
# method: NCI tumour cell line growth inhibition, 48 h; in the data active = GI50 below about 0.43 µM; inactive = the rest
Outcomes: active, inactive

itemSmiles: CC(C)Sc1nc(Nc2ccc(S(N)(=O)=O)cc2)c(C#N)c(-c2ccc(F)cc2)n1
assignedClass: inactive
--
itemSmiles: Fc1ccc(-c2nc(C(Cl)Cl)nc3cc(-c4ccccc4)nn23)cc1
assignedClass: inactive
--
itemSmiles: CS(=O)(=O)Nc1cc(-c2ccc3ncc(C#N)c(Nc4cccc(Cl)c4F)c3c2)cnc1Cl
assignedClass: active
--
itemSmiles: Cc1ccc(C(=O)Nc2ccc(CNCCN3CCOCC3)c(C(F)(F)F)c2)cc1C#Cc1cnc2cccnn12
assignedClass: inactive
